target: Cholinesterase (Equus caballus) (UniProt P81908); experiment: Inhibition of equine serum BuChE using S-butyrylthiocholine chloride as substrate at 50 uM incubated for 15 mins by Ellman's method relative to control
Sequence (P81908 whole entry): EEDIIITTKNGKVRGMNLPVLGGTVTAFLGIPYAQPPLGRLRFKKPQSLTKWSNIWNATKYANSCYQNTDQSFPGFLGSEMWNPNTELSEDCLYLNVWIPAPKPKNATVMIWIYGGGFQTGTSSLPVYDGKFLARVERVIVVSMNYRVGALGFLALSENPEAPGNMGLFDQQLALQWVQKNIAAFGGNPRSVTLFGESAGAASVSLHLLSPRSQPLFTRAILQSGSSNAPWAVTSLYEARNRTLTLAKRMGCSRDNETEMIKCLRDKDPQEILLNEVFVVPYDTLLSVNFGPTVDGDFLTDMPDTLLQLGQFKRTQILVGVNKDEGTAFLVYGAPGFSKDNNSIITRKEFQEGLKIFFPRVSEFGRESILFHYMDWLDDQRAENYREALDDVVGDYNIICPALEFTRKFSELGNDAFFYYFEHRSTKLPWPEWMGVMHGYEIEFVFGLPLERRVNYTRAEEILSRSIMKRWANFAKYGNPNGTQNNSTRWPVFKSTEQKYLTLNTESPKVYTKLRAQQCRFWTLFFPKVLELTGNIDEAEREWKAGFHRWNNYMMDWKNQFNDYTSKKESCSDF
Record form. Attribute: inhibition. Fill in for each entry.
Numbers only, in %.

Observe how each entry below is paired with its result.
CC(=O)c1ccc(OCCN2CCN(Cc3ccccc3)CC2)cc1O    11.2
CC(=O)c1ccc(OCCCCCCCCCCN2CCC(Cc3ccccc3)CC2)cc1O    13.8

Let us move to another entry and its inhibition.
INPUT: Which value of inhibition has been reported for `CC(=O)c1ccc(OCCCCCCCCCCN2CCN(Cc3ccccc3)CC2)cc1O` in the records?
OUTPUT: 15.1

---

molecular target: Amine oxidase [flavin-containing] A (Homo sapiens, UniProt P21397); test: Inhibition of human recombinant MAO-A using kynuramine as substrate measured after 30 mins by fluorimetric assay
Sequence (P21397 whole entry): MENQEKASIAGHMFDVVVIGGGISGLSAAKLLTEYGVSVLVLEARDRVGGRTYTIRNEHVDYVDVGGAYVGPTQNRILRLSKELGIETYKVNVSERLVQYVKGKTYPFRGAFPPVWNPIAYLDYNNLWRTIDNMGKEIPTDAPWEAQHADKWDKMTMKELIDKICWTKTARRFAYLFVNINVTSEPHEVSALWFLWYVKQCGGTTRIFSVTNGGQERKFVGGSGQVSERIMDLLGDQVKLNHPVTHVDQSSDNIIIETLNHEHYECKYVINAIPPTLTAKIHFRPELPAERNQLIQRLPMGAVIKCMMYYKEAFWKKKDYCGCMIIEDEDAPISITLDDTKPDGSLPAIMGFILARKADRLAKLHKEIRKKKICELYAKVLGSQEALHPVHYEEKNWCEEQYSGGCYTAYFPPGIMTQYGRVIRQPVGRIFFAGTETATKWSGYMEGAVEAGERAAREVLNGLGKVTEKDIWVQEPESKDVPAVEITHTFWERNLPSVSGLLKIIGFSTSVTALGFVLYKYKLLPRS
MEASUREMENT_NAME: pIC50
Answers are plain numbers, as −log10 of the molar value.

Observe how each entry below is paired with its result.
CC(=O)c1ccc(OCCCCCCCCCCN2CCN(Cc3ccccc3)CC2)cc1O    4.70
CC(=O)c1ccc(OCCCCCCCCCN2CCN(Cc3ccccc3)CC2)cc1O    4.71
CC(=O)c1ccc(OCCCCCCN2CCc3ccccc3C2)cc1O    4.67
CC(=O)c1ccc(OCCN2CCN(Cc3ccccc3)CC2)cc1O    4.58
CC(=O)c1ccc(OCCCN2CCC(c3ccccc3)CC2)cc1O    4.61

Let us move to another entry and its pIC50.
INPUT: Which value of pIC50 has been reported for `CC(=O)c1ccc(OCCCCCCN2CCC(Cc3ccccc3)CC2)cc1O` in the records?
OUTPUT: 4.66

---

Record form. Attribute: pIC50. Fill in for each entry.
molecular target: UniProt:P81908; assay: Inhibition of equine serum BuChE using S-butyrylthiocholine chloride as substrate incubated for 15 mins by Ellman's method
Give bare numbers, as −log10 of the molar value.

COc1cc2c(cc1OC)CN(CCCOc1ccc(C(C)=O)c(O)c1)CC2    4.24
CCN(CCCOc1ccc(C(C)=O)c(O)c1)Cc1ccccc1    4.73

For the 4 molecules below, give their pIC50 values.
1. CCN(CCCCCOc1ccc(C(C)=O)c(O)c1)Cc1ccccc1
2. COc1cc2c(cc1OC)CN(CCCCOc1ccc(C(C)=O)c(O)c1)CC2
3. CC(=O)c1ccc(OCCCCCCN2CCc3ccccc3C2)cc1O
4. CCN(CCCCCCCCCCCCOc1ccc(C(C)=O)c(O)c1)Cc1ccccc1

OUTPUT:
[4.43, 4.25, 4.49, 4.41]

---

test: Permeability of the compound at 100 ug/ml measured after compound dilution in PBS/EtOH buffer (70:30) by PAMPA-BBB assay
Record form. Attribute: Papp at 100 ug/ml. Fill in for each entry.
Numbers only, in ×10⁻⁶ cm/s.

CC(=O)c1ccc(OCCN2CCN(Cc3ccccc3)CC2)cc1O    17.4

Let us move to another entry and its Papp at 100 ug/ml.
INPUT: Which value of Papp at 100 ug/ml has been reported for `CCN(CCCCOc1ccc(C(C)=O)c(O)c1)Cc1ccccc1` in the records?
OUTPUT: 15.1

---

assay: Selectivity index, ratio of IC50 for equine serum BuChE using S-butyrylthiocholine chloride as substrate to IC50 for electric eel AChE using acetylthiocholine iodide as substrate by Ellman's method
// class assignment uses Ratio IC50 with these ranges: Low = under 4, Medium = from 4 up to 7, High = 7 and over

Example cases with answers are listed next.
CCN(CCCCOc1ccc(C(C)=O)c(O)c1)Cc1ccccc1    High
CC(=O)c1ccc(OCCCCCCN2CCc3ccccc3C2)cc1O    Low
COc1cc2c(cc1OC)CN(CCCOc1ccc(C(C)=O)c(O)c1)CC2    Medium
CCN(CCCOc1ccc(C(C)=O)c(O)c1)Cc1ccccc1    Low
CC(=O)c1ccc(OCCCCN2CCc3ccccc3C2)cc1O    High
CC(=O)c1ccc(OCCCCCCN2CCC(Cc3ccccc3)CC2)cc1O    High
CCN(CCCCCCCCCCOc1ccc(C(C)=O)c(O)c1)Cc1ccccc1    High
CC(=O)c1ccc(OCCCN2CCC(Cc3ccccc3)CC2)cc1O    Medium

INPUT: Just checking, what class would you give `CC(=O)c1ccc(OCCCN2CCC(c3ccccc3)CC2)cc1O` here?
OUTPUT: Low

INPUT: Just checking, what class would you give `CCN(CCCCCCCCCCCCOc1ccc(C(C)=O)c(O)c1)Cc1ccccc1` here?
OUTPUT: Medium

INPUT: Just checking, what class would you give `CC(=O)c1ccc(OCCCCCCCCCN2CCN(Cc3ccccc3)CC2)cc1O` here?
OUTPUT: Low

INPUT: Just checking, what class would you give `COc1cc2c(cc1OC)CN(CCCCOc1ccc(C(C)=O)c(O)c1)CC2` here?
OUTPUT: Low
